// data source = patent US7312228B2

- Test system: HOP-62
- Protocol description: NCI screen antiproliferative activity, lung HOP-62
- Assay type: cell-based
- Assay conditions: Homo sapiens, concentration corresponding to 50% growth inhibition, read-out: cytotoxicity (GI50) lung HOP-62
Recorded GI50 values for a group of compounds are listed next.

Previously resolved entries follow.
COc1cc2c3c(n(C)c(=O)c2cc1OC)-c1cc2c(cc1C3=CCCN)OCO2 = 0.071 µM
O=c1c2ccccc2cc2n1Cc1cc3ccccc3nc1-2 = 68.2 µM
COc1cc2cc3n(c(=O)c2cc1OC)Cc1cc2ccccc2nc1-3 = > 100 µM
COc1cc2c3c(n(C)c(=O)c2cc1OC)-c1cc2c(cc1C3=CCCCBr)OCO2 = 19.4 µM

Turning to the following compound.
Ask: Tell me reported GI50 for COc1cc2c3c(n(C)c(=O)c2cc1OC)-c1cc2c(cc1C3=CCCCI)OCO2 , tested with HOP-62.
Reply: 27.6 µM

* * *

- Tested on: OVCAR-3
- Protocol description: NCI screen antiproliferative activity, ovarian OVCAR-3
- Assay type: cell-based
- Assay conditions: Homo sapiens, concentration corresponding to 50% growth inhibition, read-out: cytotoxicity (GI50) ovarian OVCAR-3
Measured property: GI50 (µM)
Kindly provide the numeric value in µM only, without the unit symbol.

Previously resolved entries follow.
COc1cc2c3c(n(C)c(=O)c2cc1OC)-c1cc2c(cc1C3=CCCCI)OCO2 [compound 24] = 22.8
COc1cc2c3c(n(C)c(=O)c2cc1OC)-c1cc2c(cc1C3=CCCN)OCO2 [compound 26] = 0.56
O=c1c2ccccc2cc2n1Cc1cc3ccccc3nc1-2 [compound 13] = 39.8

Turning to the following compound.
Ask: Tell me reported GI50 for COc1cc2c3c(n(C)c(=O)c2cc1OC)-c1cc2c(cc1C3=CCCCBr)OCO2 [compound 19] , tested with OVCAR-3.
Reply: 58.1

* * *

- Tested on: MDA-MB-435
- Protocol description: NCI screen antiproliferative activity, breast MDA-MB-435
- Assay type: cell-based, human
- Assay conditions: concentration corresponding to 50% growth inhibition, read-out: cytotoxicity (GI50) breast MDA-MB-435
Measured property: GI50 (µM)
Kindly provide the numeric value in µM only, without the unit symbol.

Ask: Please give the measured GI50 for this molecule: COc1cc2c3c(n(C)c(=O)c2cc1OC)-c1cc2c(cc1C3=O)OCO2 [compound 2, reference compound]
Reply: 96

* * *

- Test system: human cancer cell lines
- Protocol description: NCI screen mean graph midpoint over approximately 55 cancer cell lines
- Assay type: cell-based
- Assay conditions: Homo sapiens; read-out: MGM (mean graph midpoint for growth inhibition)
- Procedure: Selected indenoisoquinolones described herein were examined for antiproliferative activity against the human cancer cell lines in the National Cancer Institute screen, in which the activity of each compound was evaluated with approximately 55 different cancer cell lines of diverse tumor origins. […] The relative activities of selected indenoisoquinolines described herein were obtained from the top 1-mediated DNA cleavage assay, and are also shown in Table 1. […]
Mark condition met only for GI50 values smaller than 30 µM; exact matches and larger values are condition not met.

Worked examples, 6 compounds total:
COc1cc2c3c(n(C)c(=O)c2cc1OC)-c1cc2c(cc1C3=CCCCBr)OCO2 [compound 19] = condition met
COc1cc2c3c(n(C)c(=O)c2cc1OC)-c1cc2c(cc1C3=CCCCI)OCO2 [compound 24] = condition met
COc1cc2c3c(n(C)c(=O)c2cc1OC)-c1cc2c(cc1C3=CCCCCCBr)OCO2 [compound 21] = condition met
O=c1c2ccccc2cc2n1Cc1cc3ccccc3nc1-2 [compound 13] = condition not met
COc1cc2c3c(n(C)c(=O)c2cc1OC)-c1cc2c(cc1C3=CCCN)OCO2 [compound 26] = condition met
COc1cc2c3c(n(C)c(=O)c2cc1OC)-c1cc2c(cc1C3=CCCCCBr)OCO2 [compound 20] = condition not met

Ask: Lab note: confirm whether the reported GI50 for this compound is below 30 µM, equality not counting. compound: COc1cc2c3c(n(C)c(=O)c2cc1OC)-c1cc2c(cc1C3=CCCCCl)OCO2 [compound 18]
Reply: condition not met

Ask: Lab note: confirm whether the reported GI50 for this compound is below 30 µM, equality not counting. compound: COc1cc2cc3n(c(=O)c2cc1OC)Cc1cc2ccccc2nc1-3 [compound 8]
Reply: condition not met

* * *

- Target or system: Human recombinant top1 (Homo sapiens, UniProt P11387)
- Construct: made in house
- Sequence (P11387 whole entry): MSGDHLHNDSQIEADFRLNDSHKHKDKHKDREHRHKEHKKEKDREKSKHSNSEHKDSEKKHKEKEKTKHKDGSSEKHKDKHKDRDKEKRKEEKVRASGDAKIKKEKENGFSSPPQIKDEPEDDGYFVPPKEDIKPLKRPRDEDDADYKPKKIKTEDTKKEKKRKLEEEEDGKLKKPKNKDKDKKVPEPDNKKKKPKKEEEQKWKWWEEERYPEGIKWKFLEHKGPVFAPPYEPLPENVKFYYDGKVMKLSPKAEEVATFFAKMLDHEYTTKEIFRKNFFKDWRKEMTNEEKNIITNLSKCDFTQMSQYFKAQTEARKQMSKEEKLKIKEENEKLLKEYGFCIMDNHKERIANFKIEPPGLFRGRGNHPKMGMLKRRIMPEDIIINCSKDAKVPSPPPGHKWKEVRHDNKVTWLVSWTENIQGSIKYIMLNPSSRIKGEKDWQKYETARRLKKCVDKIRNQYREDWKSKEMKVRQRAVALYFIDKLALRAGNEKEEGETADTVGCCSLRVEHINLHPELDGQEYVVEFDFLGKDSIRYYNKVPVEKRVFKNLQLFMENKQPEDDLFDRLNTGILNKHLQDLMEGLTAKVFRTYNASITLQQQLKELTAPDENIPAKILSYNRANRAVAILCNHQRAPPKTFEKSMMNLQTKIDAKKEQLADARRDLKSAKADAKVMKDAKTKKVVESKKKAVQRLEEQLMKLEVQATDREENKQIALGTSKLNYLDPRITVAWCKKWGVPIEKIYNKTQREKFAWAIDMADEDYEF
- Protocol description: Top1-mediated DNA cleavage reactions
- Format: biochemical
- Design: key: weak activity (+); activity similar to compound 2 (++); activity greater than compound 2 (+++)
- Assay conditions: tested at concentrations ranging up to 10 μM; relative to compound 2
Measured property: Top 1 Cleavage

COc1cc2c3c(n(C)c(=O)c2cc1OC)-c1cc2c(cc1C3=CCCN)OCO2 [compound 26] = +++
COc1cc2c3c(n(C)c(=O)c2cc1OC)-c1cc2c(cc1C3=CCCCCl)OCO2 [compound 18] = +
O=c1c2ccccc2cc2n1Cc1cc3ccccc3nc1-2 [compound 13] = ++
COc1cc2c3c(n(C)c(=O)c2cc1OC)-c1cc2c(cc1C3=CCCCCCBr)OCO2 [compound 21] = +
COc1cc2cc3n(c(=O)c2cc1OC)Cc1cc2ccccc2nc1-3 [compound 8] = +

Ask: Please give the measured Top 1 Cleavage for this compound: COc1cc2c3c(n(C)c(=O)c2cc1OC)-c1cc2c(cc1C3=CCCCI)OCO2 [compound 24]
Reply: 0

Ask: Please give the measured Top 1 Cleavage for this compound: COc1cc2c3c(n(C)c(=O)c2cc1OC)-c1cc2c(cc1C3=CCCCBr)OCO2 [compound 19]
Reply: 0

Ask: Please give the measured Top 1 Cleavage for this compound: COc1cc2c3c(n(C)c(=O)c2cc1OC)-c1cc2c(cc1C3=O)OCO2 [compound 2, reference compound]
Reply: ++

* * *

- Tested on: SN12C
- Protocol description: NCI screen antiproliferative activity, renal SN12C
- Assay type: cell-based
- Assay conditions: Homo sapiens, concentration corresponding to 50% growth inhibition, read-out: cytotoxicity (GI50) renal SN12C
Measured property: GI50

COc1cc2cc3n(c(=O)c2cc1OC)Cc1cc2ccccc2nc1-3 [compound 8] = > 100 µM

Ask: Tell me reported GI50 for COc1cc2c3c(n(C)c(=O)c2cc1OC)-c1cc2c(cc1C3=CCCCCl)OCO2 [compound 18] , tested with SN12C.
Reply: > 100 µM

Ask: Tell me reported GI50 for COc1cc2c3c(n(C)c(=O)c2cc1OC)-c1cc2c(cc1C3=CCCCCBr)OCO2 [compound 20] , tested with SN12C.
Reply: > 100 µM

Ask: Tell me reported GI50 for COc1cc2c3c(n(C)c(=O)c2cc1OC)-c1cc2c(cc1C3=CCCN)OCO2 [compound 26] , tested with SN12C.
Reply: 0.58 µM

Ask: Tell me reported GI50 for COc1cc2c3c(n(C)c(=O)c2cc1OC)-c1cc2c(cc1C3=CCCCBr)OCO2 [compound 19] , tested with SN12C.
Reply: > 100 µM

Ask: Tell me reported GI50 for COc1cc2c3c(n(C)c(=O)c2cc1OC)-c1cc2c(cc1C3=CCCCI)OCO2 [compound 24] , tested with SN12C.
Reply: 8.8 µM

Ask: Tell me reported GI50 for O=c1c2ccccc2cc2n1Cc1cc3ccccc3nc1-2 [compound 13] , tested with SN12C.
Reply: > 100 µM

* * *

- System: HCT-116
- Protocol description: NCI screen antiproliferative activity, colon HCT-116
- Format: cell-based
- Assay conditions: Homo sapiens, concentration corresponding to 50% growth inhibition, read-out: cytotoxicity (GI50) colon HCT-116
Measured property: GI50

Previously resolved entries follow.
COc1cc2c3c(n(C)c(=O)c2cc1OC)-c1cc2c(cc1C3=CCCCI)OCO2 = 0.56 µM
COc1cc2c3c(n(C)c(=O)c2cc1OC)-c1cc2c(cc1C3=CCCCBr)OCO2 = 37.8 µM
O=c1c2ccccc2cc2n1Cc1cc3ccccc3nc1-2 = 32.7 µM
COc1cc2cc3n(c(=O)c2cc1OC)Cc1cc2ccccc2nc1-3 = 57.3 µM

Turning to the following compound.
Ask: Please give the measured GI50 for this compound: COc1cc2c3c(n(C)c(=O)c2cc1OC)-c1cc2c(cc1C3=CCCN)OCO2
Reply: 0.028 µM
